The reported measurements were obtained from the Human Domainome abundance scans (Beltran et al. 2025).

B1: POU domain, class 2, transcription factor 2, residues 200 to 269; numbered along this chain, P09086 (parent)
chain: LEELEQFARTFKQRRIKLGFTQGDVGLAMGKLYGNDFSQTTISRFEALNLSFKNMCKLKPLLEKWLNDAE

# Variants of: B1
# measurementDescription: abundance fitness (aPCA) (normalised: wild type 0, dead -1); higher = more abundant; growth selection in yeast, the domain comes from the species named
# conditionsUsed: Homo sapiens
Criterion: abundance fitness meeting or surpassing -0.1. Met: 1 (yes). Not met: 0 (no).

As a guide, the following entries are already answered.
INSERT INTO assay_data (alteration, classlabel) VALUES
  ('W65K', '0 (no)'),
  ('A8E', '0 (no)'),
  ('F7C', '0 (no)'),
  ('N35D', '1 (yes)'),
  ('K17F', '1 (yes)');

Task item: Threshold query (abundance fitness >= -0.1) on Q6D
Reply: 1 (yes)

Task item: Now this one: E46F
Reply: 0 (no)

Task item: Now this one: F52E
Reply: 1 (yes)

Task item: Now this one: S43L
Reply: 1 (yes)

Task item: Now this one: Q13L
Reply: 1 (yes)

Task item: Now this one: F20D
Reply: 0 (no)

Task item: Now this one: G19Y
Reply: 0 (no)

Task item: Now this one: S38V
Reply: 1 (yes)

Task item: Now this one: K31T
Reply: 1 (yes)
